Reference source for all entries: the supplement of paper PMC6763611

System: Plasmodium falciparum NF54
TEST: growth inhibition relative to untreated control; higher = more inhibition
RECORDED CONDITIONS: 1 µM; MM + chorismate end-products (CM screening medium); 72 h
# growth inhibition per record follows

COc1cc(C(F)(F)F)nc2ccc(C)c(N)c12: < 0%

Lookup: Give growth inhibition for the following molecule: `CCC(=O)Nc1ccccc1C(=O)Nc1ccccn1`
Found: < 0%

Lookup: For the molecule `CC(=O)Oc1ccccc1C(=O)Nc1ncc([N+](=O)[O-])s1` , report growth inhibition.
Found: < 0%

----------
Test system: Plasmodium falciparum NF54
TEST: growth inhibition relative to untreated control; higher = more inhibition
RECORDED CONDITIONS: 5 µM; MM + chorismate end-products (CM screening medium); 72 h
EXPERIMENTAL ENDPOINT: growth inhibition (%)
Value expressed in %; do not type the unit.

O[C@@H](c1cc(C(F)(F)F)nc2c(C(F)(F)F)cccc12)[C@H]1CCCCN1: 91.5
COc1ccc(C2CC(c3cccs3)=NN2C(=O)c2ccco2)cc1OC (configuration not stated): 91.4
CO[C@@H](C(=O)N1Cc2[nH]nc(NC(=O)c3ccc(N4CCN(C)CC4)cc3)c2C1)c1ccccc1: 90

Lookup: Param request: growth inhibition | system Plasmodium falciparum NF54 | item `CC(C)c1ncc(-c2ccncc2)c([C@H]2CC[C@H](CNC(=O)c3cccnc3)CC2)n1`
Found: 92.5

Lookup: Jot down growth inhibition (Plasmodium falciparum NF54) of CCC(NC(=O)c1ccccc1NC(=O)c1ccc(C)cc1)C(=O)OC (configuration not stated) .
Found: 97.1

----------
System: Plasmodium falciparum NF54
TEST: growth inhibition relative to untreated control; higher = more inhibition
RECORDED CONDITIONS: 1 µM; MM + chorismate end-products (CM screening medium); 72 h
EXPERIMENTAL ENDPOINT: growth inhibition (%)
Use % as the unit, but write only the number.

As a guide, the following entries are already answered.
CN(C)CCNC(=O)N1CCCN(c2ncnc3cc(-c4ccccc4)sc23)CC1: 72.9
CC(C)(C)c1cc(C(=O)N2CCN(c3nccnc3C#N)CC2)n(Cc2ccccc2)n1: 73.4
COc1ccc(Oc2ccc([C@@H](C)N(C)c3ncc4c(N)nc(N)nc4n3)cc2)cc1: 13.7

Lookup: Supply measured growth inhibition of `O=C(NCCc1ccccc1)c1cc(-c2cccnc2)cnc1NCC1CC1` in your reply.
Found: 77.5

----------
Tested on: Plasmodium falciparum NF54
TEST: growth inhibition relative to untreated control; higher = more inhibition
RECORDED CONDITIONS: 5 µM; MM + chorismate end-products (CM screening medium); 72 h
Parameter: growth inhibition. Scope: all listed entries.

Answered examples (3):
CN(C)CCNC(=O)N1CCCN(c2ncnc3cc(-c4ccccc4)sc23)CC1: > 100%
Cc1ccccc1C(=O)N1N=C(Nc2ccccc2)SC1(C)C: < 0%
COCC(C)NC(=O)CSc1ncnc2sc(-c3ccccc3)cc12 (centres undefined): < 0%

Lookup: Note down growth inhibition recorded for `COC(=O)c1c(NC(=O)c2c(F)c(F)c(F)c(F)c2F)sc2c1CCCCC2`
Found: < 0%

----------
System: Plasmodium falciparum NF54
TEST: growth inhibition relative to untreated control; higher = more inhibition
RECORDED CONDITIONS: 5 µM; minimal medium (MM); 72 h
EXPERIMENTAL ENDPOINT: growth inhibition (%)
Report as a plain number; the unit % is understood.

Clc1ccc(-n2cc(COc3ccnc4ccccc34)nn2)cc1: 16
O=C(NC1CC1)c1ccc(N2CCOc3ccc(Cl)cc32)s1: 91.5

# ---- query molecule ----
Lookup: Provide growth inhibition value for the following molecule: CCC(Sc1nc2ccccc2o1)C(=O)Nc1nnc(C)s1 (centres undefined)
Found: 0.009

----------
Test system: Plasmodium falciparum NF54
TEST: growth inhibition relative to untreated control; higher = more inhibition
RECORDED CONDITIONS: 1 µM; MM + chorismate end-products (CM screening medium); 72 h
EXPERIMENTAL ENDPOINT: growth inhibition (%)
I only need the number, in %, no unit after it.

Worked cases, answers included:
COC(=O)c1c(NC(=O)c2c(F)c(F)c(F)c(F)c2F)sc2c1CCCCC2: 26.9
Cc1ccc2c(c1C)NC(=O)C21NN=C(c2ccccc2)S1 (stereo not drawn): 95.4

Kindly review the next compound as well.
Lookup: Specify growth inhibition for `Nc1ncnc2c1c(-c1cnc3ccccc3c1)nn2CC1CCNCC1` and stop.
Found: 22.7

----------
Tested on: Plasmodium falciparum NF54
TEST: growth inhibition relative to untreated control; higher = more inhibition
RECORDED CONDITIONS: 1 µM; minimal medium (MM); 72 h
EXPERIMENTAL ENDPOINT: growth inhibition (%)
Report the value in % with no unit label.

Check out these entries, answers already filled in.
Cc1ccc(S(=O)(=O)Nc2ccc(CN3CCN(C(=O)c4cccc(C#N)c4)CC3)cc2)cc1: 5.35
CC1CCCCN1C(=O)NCCc1coc(-c2ccc(F)cc2)n1 (stereo not given): 8.79
Cc1ccc(NC(=O)c2cc(S(=O)(=O)NC(C)(C)C)ccc2C)nc1: 52.9

Lookup: Given `CC(C)(C)n1nc(-c2ccccc2)c2c(N)ncnc21` , report its growth inhibition on Plasmodium falciparum NF54.
Found: 20.3

Lookup: Tell me growth inhibition of `Nc1ncnc2c1ncn2C[C@@H](O)[C@@H](O)C(=O)O` when tested on Plasmodium falciparum NF54.
Found: 43

Lookup: # lookup: Plasmodium falciparum NF54 growth inhibition, key = `CC(C)n1nc(-c2cc3c(Cl)cccc3[nH]2)c2c(N)ncnc21`
Found: 16

Lookup: GET growth inhibition where system = Plasmodium falciparum NF54 and item = `Nc1nccc2ccc(Oc3ccncc3)cc12`
Found: 64

Lookup: For Plasmodium falciparum NF54, give growth inhibition of the listed compound: `O=C(NCc1cc(Cl)cc(Cl)c1)c1c(C(F)(F)F)nc2ccccn12`
Found: 10.6

Lookup: Find the measured growth inhibition of COc1ccc(CN2CCOc3ccc(C(C)(O)CN(C)C)cc3C2)cc1C (stereo not given) with Plasmodium falciparum NF54 as test system.
Found: 75

Lookup: Report its growth inhibition with Plasmodium falciparum NF54 as the test system: CC(C)C(C(=O)Nc1ccc(S(=O)(=O)N(C)C)cc1)c1ccc(Cl)cc1 (stereo not given)
Found: 94.8

Lookup: Give growth inhibition; test system Plasmodium falciparum NF54; compound `COc1cccn2c(C(=O)N3CCCCC3)c(C(F)(F)F)nc12`
Found: 15.1

Lookup: Give reported growth inhibition for `COc1ccc(-c2nnc3ccc(-c4cccc(C(C)C)c4)cn23)cc1OC` (Plasmodium falciparum NF54)
Found: 3.89

Lookup: Give measured growth inhibition for `Cc1ccc(-c2nc(CN(Cc3ccccn3)C(C)C)cs2)o1` (Plasmodium falciparum NF54).
Found: 20.3

Lookup: Send back Plasmodium falciparum NF54 growth inhibition of `Cc1cc(NCCc2ccccc2)nc(NC(=N)Nc2ccc(Cl)cc2)n1` only.
Found: 97.7

----------
System: Plasmodium falciparum NF54
TEST: growth inhibition relative to untreated control; higher = more inhibition
RECORDED CONDITIONS: 1 µM; MM + chorismate end-products (CM screening medium); 72 h
growth inhibition class ranges: band 1: < 30%; band 2: ≥ 30% and < 70%; band 3: ≥ 70%

# example entries with known answers
CC(Oc1cccc(Cl)c1)C(=O)Nc1ccc2oc(-c3ccncc3)nc2c1 (stereo not given): band 1
CN1CCN(CCCOc2ncc(Nc3ncc(-c4ccc(C(F)(F)F)c(F)c4)nc3C(N)=O)cn2)CC1: band 3
CO[C@H]1/C=C\O[C@@]2(C)Oc3c(C)c(O)c4c(O)c(/c(=C/NN5CCN(C)CC5)c(O)c4c3C2=O)=N\C(=O)/C(C)=C\C=C/[C@H](C)[C@H](O)[C@@H](C)[C@@H](O)[C@@H](C)[C@H](OC(C)=O)[C@@H]1C: band 2
NC(CC(=O)c1ccc(Cl)cc1Cl)C(Cl)(Cl)Cl (stereo not given): band 1
CCS(=O)(=O)N(Cc1ccco1)Cc1cc2ccc(C)cc2nc1O: band 2

Lookup: Class for `CCOC(=O)c1c(NC(=O)c2c(F)c(F)c(F)c(F)c2F)sc(C(N)=O)c1C` ?
Found: band 1

Lookup: Bin? `Cc1ccc2nc(Cl)c(CNCc3cccs3)cc2c1`
Found: band 2

----------
Test system: Plasmodium falciparum NF54
TEST: growth inhibition relative to untreated control; higher = more inhibition
RECORDED CONDITIONS: 5 µM; MM + chorismate end-products (CM screening medium); 72 h
Consider the following partition of reported growth inhibition into named classes: lower range: < 40%; middle range: ≥ 40% and < 70%; upper range: ≥ 70%

Cc1ccc(C(=O)Nc2ccc(S(=O)(=O)O)c3cc(S(=O)(=O)O)cc(S(=O)(=O)O)c23)cc1NC(=O)c1cccc(NC(=O)Nc2cccc(C(=O)Nc3cc(C(=O)Nc4ccc(S(=O)(=O)O)c5cc(S(=O)(=O)O)cc(S(=O)(=O)O)c45)ccc3C)c2)c1: lower range

We next turn to a different compound, shown below.
Lookup: Which class does `CO[C@H]1/C=C\O[C@@]2(C)Oc3c(C)c(O)c4c(O)c(/c(=C/NN5CCN(C)CC5)c(O)c4c3C2=O)=N\C(=O)/C(C)=C\C=C/[C@H](C)[C@H](O)[C@@H](C)[C@@H](O)[C@@H](C)[C@H](OC(C)=O)[C@@H]1C` fall in?
Found: upper range
